# Tested on: DMS 114 small cell lung
# test_description: NCI tumour cell line growth inhibition, 48 h
Entries and their TGI values follow.
readout_name: TGI

compound=COc1ccccc1/C=C(\NC(=O)c1ccccc1)c1nc2ccccc2[nH]1 test_system="DMS 114 small cell lung" test_value="> 100 µM"
compound="c1ccc(C2N=C(c3ccccn3)C(c3ccccn3)=NC2c2ccccc2)cc1 (centres undefined)" test_system="DMS 114 small cell lung" test_value="> 100 µM"
compound=O=c1[nH]c(=S)[nH]c2c1CCCN2 test_system="DMS 114 small cell lung" test_value="> 100 µM"
compound=C/C(=C\c1ccccc1)C(=O)c1c(C)cc(C)cc1C test_system="DMS 114 small cell lung" test_value="> 100 µM"
compound=C=C(c1ccccc1)c1cc2c(=O)[nH]ccc2n1C test_system="DMS 114 small cell lung" test_value="50.1 µM"
compound="O=C(O)C1CC2C=CCC(C2)C1 (centres undefined)" test_system="DMS 114 small cell lung" test_value="> 100 µM"
compound="C[C@@H]1CC2(C[C@@H](C)C3[C@@H](CC4(C)CCCC5C6=CC(O)(CC[C@]34C)OC6=CC(=O)OC5(C)C)O2)OC1=O (some centres undefined)" test_system="DMS 114 small cell lung" test_value="> 100 µM"
compound=Cc1c2cc[n+](C)cc2c(C)c2c1[nH]c1ccc(OCC(F)(F)F)cc12 test_system="DMS 114 small cell lung" test_value="> 21.6 µM"
compound=COC(OC)c1cccnc1C test_system="DMS 114 small cell lung" test_value="> 100 µM"

---

# Test system: SNB-19 CNS
# test_description: NCI tumour cell line growth inhibition, 48 h
Examples of molecules with documented TGI follow.
readout_name: TGI

molecule="O=C(CCC(NC(=O)OCc1ccccc1)C(=O)OCc1ccccc1)Nc1cccc(OCc2ccccc2)c1 (configuration not stated)" test_value="> 100 µM"
molecule="C[C@H](NC(=O)C(C)(Cc1ccc(O)cn1)NC(=O)c1ccccc1)c1ccccc1 (some centres not stated)" test_value="> 100 µM"
molecule=COc1ccc(-c2c(/C=N/OCC(=O)O)c3sc4ccccc4n3c2/C=N/OCC(=O)O)cc1 test_value="> 50 µM"
molecule=O=C(NC1=C(Cl)C(=O)c2ccccc2C1=O)C(=O)c1c(O)c2ccccc2oc1=O test_value="16 µM"
molecule=O=C(O)CCN1C(=S)CSC1=S test_value="> 100 µM"
molecule="CNC(=O)NCCCCC(NC(C)=O)C(=O)NCc1ccccc1 (configuration not stated)" test_value="> 100 µM"
molecule=C=C(CN1CCN(c2ccccn2)CC1)c1ccc(C(=O)Nc2ccccc2N)cc1 test_value="29.7 µM"
molecule=C/C(=N\NC(=S)N1CCCC1)c1ccccn1 test_value="14.7 µM"
molecule=Cc1c(C(=O)O)sc2nc[nH]c(=O)c12 test_value="> 100 µM"
molecule=O=c1[nH]c(=S)[nH]c2c1CCCN2 test_value="> 100 µM"
molecule=C(=Nc1ccc(-c2nc3ccccc3s2)cc1)c1cccs1 test_value="> 100 µM"
molecule="CC1(C)CC(=O)C2=C(C1)NC(=S)C(C#N)C2c1ccccc1 (configuration not stated)" test_value="> 100 µM"
molecule=Oc1ccc(Nc2nc(Cl)c3[nH]cnc3n2)cc1 test_value="> 100 µM"
molecule="COc1c2c(c(O)c3c4c(c(C)cc13)C1OC3(C(OC)OC5CC(C)(O)C(OC6CC(C)(O)C(O)C(C)O6)C(C)O5)OC1C(OC)(O4)C31CO1)C(=O)C(O)CC2OC1CC(C)(O)C(OC(C)=O)C(C)O1 (configuration not stated)" test_value="0.739 µM"
molecule=C=CC(C)(C)/C(=C\CO[Si](C(C)C)(C(C)C)C(C)C)C(=O)N(C)c1ccccc1I test_value="28.1 µM"
molecule="CC12CC(c3ccccc3O1)C(C(=O)Nc1nccs1)C(=O)N2 (configuration not stated)" test_value="> 100 µM"
molecule=C#CCn1c(I)cc2c(c1=O)COC(=O)[C@]2(O)CC test_value="> 100 µM"
molecule="COc1ccc(C2=NNC(c3sc(Cl)nc3Cl)C2)cc1 (configuration not stated)" test_value="68.6 µM"
molecule="CNCC(SC)c1ccc(O)c(O)c1 (configuration not stated)" test_value="> 100 µM"
molecule=COc1cccc(C=NC23CC4CC(CC(C4)C2)C3)c1 test_value="> 100 µM"
molecule=COC(=O)N[C@@H](C)CNc1nccc(-c2cn(C(C)C)nc2-c2cc(Cl)cc(NS(C)(=O)=O)c2F)n1 test_value="> 100 µM"
molecule="CCC1OC2(C)CC(C#N)(C#N)C1(C#N)C(=N)O2 (configuration not stated)" test_value="> 100 µM"

---

# Tested on: K-562 leukemia
# test_description: NCI tumour cell line growth inhibition, 48 h
readout_name: TGI

compound=Cc1noc(-c2ccc(C(=O)O)[nH]2)c1Br readout_name=TGI test_value="> 100 µM"
compound=O=C(Nc1ccccc1)N1C(c2ccccc2)=N[C@@H](c2ccccc2)[C@@H]1c1ccccc1 readout_name=TGI test_value="50.9 µM"
compound=CSCc1ncc(-c2ccc(C(F)(F)F)cc2)c(NC2CCCCCC2)n1 readout_name=TGI test_value="> 10 µM"
compound="C#CC(O)/C=C/C(O)CCCC(O)CC#CC(O)C#CCCCCC(O)/C=C/CCCC(=O)CCCCCCCCCCCCCCCC(O)C(O)C#CC(=O)O (stereo unspecified)" readout_name=TGI test_value="> 25 µM"
compound=O=C(NCc1cn(Cc2cccc(Oc3ccccc3)c2)nn1)c1cccnc1NCc1ccc(Cl)cc1 readout_name=TGI test_value="> 100 µM"
compound="COC1CCC(CO)OO1 (stereo unspecified)" readout_name=TGI test_value="> 100 µM"
compound=COc1ccc(NCn2nc(CCCCCCCCc3nn(CNc4ccc(OC)cc4)c(=S)o3)oc2=S)cc1 readout_name=TGI test_value="> 100 µM"
compound=COC(=O)c1c(C(=O)O)c(-c2ccccc2)c(-c2ccccc2)c(-c2ccccc2)c1-c1ccccc1 readout_name=TGI test_value="> 100 µM"
compound="CC(=O)c1c(-c2ccco2)c(C#N)c(=S)n(C2OC(CO)C(O)C(O)C2O)c1C (stereo unspecified)" readout_name=TGI test_value="> 100 µM"
compound=C/C(=N\Nc1nc2cc(F)ccc2s1)c1ccccn1 readout_name=TGI test_value="> 43.8 µM"
compound=O=S1(=O)CCC2=CC(C(F)(F)F)=CC(C(F)(F)F)=CN21 readout_name=TGI test_value="6.61 µM"
compound=CCN(CC)c1ccc(/C=N/N=C(N)N)cc1 readout_name=TGI test_value="16.4 µM"
compound=COc1cccc(C=NC23CC4CC(CC(C4)C2)C3)c1 readout_name=TGI test_value="> 100 µM"
compound=COc1ccc2c(CN3CCCC[C@H]3O)cc3cc4c(cc3c2c1)OCO4 readout_name=TGI test_value="4.35 µM"
compound=CC(C)(C)OC(=O)NCCCCCCCCCCCCn1c2c(c3ccccc3c1=O)C(=O)c1ccccc1-2 readout_name=TGI test_value="> 100 µM"
compound=COc1ccc(/C=C/C(=O)c2cc(CN(C)C)c(O)c(CN(C)C)c2)cc1 readout_name=TGI test_value="70.7 µM"
compound=COc1ccc(C(=O)c2ccccc2)c(O)c1 readout_name=TGI test_value="> 100 µM"
compound=O=C(NCCCN1CCN(CCCNC(=O)Nc2cc(Cl)ccc2Cl)CC1)Nc1cc(Cl)ccc1Cl readout_name=TGI test_value="> 100 µM"
compound="C/C(=N/NC(N)=S)C(CN1CCOCC1)C(C1=C(O)c2ccccc2OC1)c1ccccc1 (stereo unspecified)" readout_name=TGI test_value="> 100 µM"
compound=Fc1ccc(-c2ncn(C3CCNCC3)c2-c2ccnc(Oc3ccc(Cl)cc3)n2)cc1 readout_name=TGI test_value="11.2 µM"
compound=COc1ccc(-c2cn3ccnc3c(-c3ccc(Cl)cc3)n2)cc1 readout_name=TGI test_value="> 100 µM"

---

# System: HCC-2998 colon
# test_description: NCI tumour cell line growth inhibition, 48 h
readout_name: TGI (µM)

compound="COc1ccc(C2=NNC(c3sc(Cl)nc3Cl)C2)cc1 (stereo unspecified)" unit_of_measure=µM bound_operator== test_value=33.9
compound=Cn1cc(-c2csc(-c3ccc(Cl)cc3)n2)c2cccnc21 unit_of_measure=µM bound_operator== test_value=28.8
compound=CCOC(=O)c1c(SC(=O)c2ccc(Cl)cc2)n(-c2ccccc2)c(=S)n(-c2ccccc2)c1=O unit_of_measure=µM bound_operator=> test_value=100
compound="CNC(=O)NCCCCC(NC(C)=O)C(=O)NCc1ccccc1 (stereo unspecified)" unit_of_measure=µM bound_operator=> test_value=100
compound=CCNc1ccc2c(c1)C(=O)N(OS(C)(=O)=O)C2=O unit_of_measure=µM bound_operator=> test_value=100
compound="CCNC1CC(n2cc(C)c(=O)[nH]c2=O)OC1CO (stereo unspecified)" unit_of_measure=µM bound_operator=> test_value=100
compound=O=C(OCC1=CC(=O)c2ccccc2C1=O)c1ccccc1 unit_of_measure=µM bound_operator== test_value=18.8
compound=COc1ccc(CN2c3ccccc3Sc3ccccc32)cc1O unit_of_measure=µM bound_operator== test_value=10.7
compound=COc1cc(C=NCC(=O)CSC(c2ccccc2)c2ccccc2)ccc1O unit_of_measure=µM bound_operator== test_value=16.5
compound=C/C(CC(O)(C(F)(F)F)C(F)(F)F)=N\O unit_of_measure=µM bound_operator=> test_value=10
compound=CC(C)(C)OC(=O)NCCCCCCCCCCCCn1c2c(c3ccccc3c1=O)C(=O)c1ccccc1-2 unit_of_measure=µM bound_operator=> test_value=100

Values compiled from PubChem BioAssay (NCI).
